From: PubChem BioAssay (NCI)

# System: IGROV1 ovarian
# ASSAY DETAILS: NCI-60 one-dose screen, 48 h
# ASSAY CONDITIONS: 10 µM unless noted
# Protocol: Growth inhibition of the IGROV1 human tumor cell line is measured as a screen for anti-cancer activity. Cells are grown in 96 well plates and exposed to the test compound for 48 hours. Compounds are tested at a single concentration, which is 10^-5 M for most compounds. The reported endpoint is percent growth (GI% or GIPRCNT), where numbers from 0 - 100% represent growth inhibition, and numbers from -100% - 0 represent cell death. For example, a value of 40 represents 60% growth inhibition. […]
About 83,000 compounds went through this panel and 20% of them were active in at least one assay; those are over-represented in the sample as a whole. Activity calls are given as the source filed them. Rule for the calls: active = growth percent below 10; inactive = the rest.
API: response.call in TRUE = active, FALSE = inactive

Observe how each entry below is paired with its result.
| COMPOUND | ASSIGNED LABEL |
| --- | --- |
| O=C(OCc1nc2nc(Cl)nc(N3CCOCC3)c2[nH]1)n1ccnc1 | TRUE |
| CC(=O)N1N=C(c2cccc(Nc3ccncc3)c2)CC1c1ccccc1 (stereo not given) | FALSE |
| COc1ccc(C2CC(c3cccc(Nc4ccncc4)c3)=NN2c2ccc(Cl)cc2)cc1 (stereo not given) | FALSE |
| C#CC(=O)Nc1cccc2c1cc(C)n2-c1nc2c(c(NCc3ccccc3)n1)CCCC2 | TRUE |
| c1ccc(Cn2nc3c(c2-c2ccccc2)-c2oncc2CC3)cc1 | FALSE |

So what was the verdict on O=S(=O)(NCCCNc1nccc(-c2c(-c3cccc(O)c3)nc3occn23)n1)c1ccc(Br)cc1 in this test? FALSE

So what was the verdict on O=S(=O)(c1ccc(N/N=C\c2ccccc2)cc1)c1ccc(N/N=C/c2ccccc2)cc1 in this test? FALSE

So what was the verdict on COc1ccc(NC(=O)c2sc3nc(C)c(C(O)c4ccc(OC)cc4)cc3c2N)cc1 (stereo not given) in this test? FALSE

So what was the verdict on COc1nc(N)nc(-n2c(-c3ccc(C)cc3)nc3ccccc32)c1NCc1ccc(C)cc1 in this test? FALSE

So what was the verdict on CC(=O)N1c2ccccc2NC2=C(C(=O)N(Cc3ccccc3)C2(C)C)C1c1ccco1 (stereo not given) in this test? FALSE
